B1: RHOBTB3 (parent)
chain: VSHVFMLLFNVKSPTDIQDSSIIR

# Variants of: B1
# assay.details: protein stability index of a GFP-peptide fusion (GPS, HEK-293T) (PSI 1-6); higher = more stable;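 also: lentivirally expressed fusions sorted by FACS into six bins by GFP to DsRed ratio, PSI derived from sequencing read proportions per bin multiplied by bin number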
# condition.context: c terminus: a fixed tail appended
Would you mind telling me the reported protein stability index of each entry?
Could you respond with only the numeric value?

Query: Look up protein stability index for this variant: "V1A"
Result: 2.98

Query: If you can, please state the reported protein stability index value of "N10I" .
Result: 2.19

Query: Report protein stability index for "M6Q" please.
Result: 2.24

Query: Item "L7N" has what recorded protein stability index?
Result: 2.25

Query: Fill in the blank: the reported protein stability index of "V1L" is ____.
Result: 1.33

Query: Bench note: what protein stability index did "S13H" show?
Result: 2.37

Query: What value of measured protein stability index is listed for "S21G" ?
Result: 3.46

Query: Could you tell me which protein stability index is on file for "I23P" ?
Result: 1.33

Query: Form field: reported protein stability index of "P14A"
Result: 3.26

Query: Fill blank: measured protein stability index of the variant "V1I" is ____.
Result: 3.46

Query: What does the data say about its protein stability index? Entry: "I17E"
Result: 1.9

Query: Request the reported protein stability index associated with "V1N"
Result: 1.89

Query: What value of protein stability index has been recorded for this entry: "I17Q"
Result: 1.58

Query: So what does the record say about protein stability index for "P14H" ?
Result: 2.54

Origin of the recorded values: the supplement of paper PMC10567573
